- protocol.details: thymolytic activity (topical administration)
- Assay type: in vivo, rat (adult female albino, Sprague-Dawley)
- condition.label: topical; relative, comparison product conventionally equal to 1 (Dexamethasone 21-acetate = 1)

compound	Thymolytic activity
CC(=O)OCC(=O)[C@@]12N=NC[C@@H]1C[C@H]1[C@@H]3CCC4=CC(=O)C=C[C@]4(C)[C@@]3(F)[C@@H](O)C[C@@]12C [Pyr-F-Ac]	0.14
CC(=O)OCC(=O)[C@@]12NN=C[C@@H]1C[C@H]1[C@@H]3C[C@H](F)C4=CC(=O)C=C[C@]4(C)[C@@]3(F)[C@@H](O)C[C@@]12C [16,17 M Dif-AC]	0.26
CC(=O)OCC(=O)[C@@]12N=NC[C@@H]1C[C@H]1[C@@H]3C[C@H](F)C4=CC(=O)C=C[C@]4(C)[C@@]3(F)[C@@H](O)C[C@@]12C [Pyr Dif-AC]	0.52
CC(=O)OCC(=O)[C@@]12NN=C[C@@H]1C[C@H]1[C@@H]3CCC4=CC(=O)C=C[C@]4(C)[C@@]3(F)[C@@H](O)C[C@@]12C [16-17 MF-AC]	0.02
